- system: Serine/threonine-protein kinase B-raf (Homo sapiens, UniProt P15056, V600E)
- Sequence (P15056 2-766 V600E limits assumed): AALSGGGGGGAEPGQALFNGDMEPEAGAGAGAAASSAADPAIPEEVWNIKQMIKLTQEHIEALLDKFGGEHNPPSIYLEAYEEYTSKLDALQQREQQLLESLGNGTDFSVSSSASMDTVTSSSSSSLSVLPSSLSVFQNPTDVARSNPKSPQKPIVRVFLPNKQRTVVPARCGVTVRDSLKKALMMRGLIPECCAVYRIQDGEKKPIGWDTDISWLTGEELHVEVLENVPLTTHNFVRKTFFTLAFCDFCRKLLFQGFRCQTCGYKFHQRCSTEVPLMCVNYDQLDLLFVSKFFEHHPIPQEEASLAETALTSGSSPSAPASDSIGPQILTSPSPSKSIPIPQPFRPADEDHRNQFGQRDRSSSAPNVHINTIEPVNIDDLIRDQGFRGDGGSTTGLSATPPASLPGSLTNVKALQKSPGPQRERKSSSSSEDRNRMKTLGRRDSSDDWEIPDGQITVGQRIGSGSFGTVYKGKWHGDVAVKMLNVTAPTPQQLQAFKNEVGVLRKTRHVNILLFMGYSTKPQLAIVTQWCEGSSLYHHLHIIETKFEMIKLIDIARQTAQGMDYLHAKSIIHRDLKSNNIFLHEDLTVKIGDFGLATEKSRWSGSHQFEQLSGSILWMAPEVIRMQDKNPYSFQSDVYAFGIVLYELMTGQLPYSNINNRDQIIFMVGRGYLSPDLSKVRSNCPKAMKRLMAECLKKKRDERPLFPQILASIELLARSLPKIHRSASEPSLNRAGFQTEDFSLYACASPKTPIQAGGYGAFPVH
- run.description: Inhibition of BRAF V600E mutant (unknown origin) measured after 40 mins by scintillation counting
Each item that follows carries a reported IC50.
assay.readout: IC50 (µM)

>  <smiles.notation>
CNC(=O)c1cc(Oc2ccc3nc(NC(=O)Nc4cc(C(F)(F)F)cc(C(F)(F)F)c4)sc3c2)ccn1

>  <recorded.result>
1.23

$$$$
>  <smiles.notation>
CNC(=O)c1cc(Oc2ccc3nc(NC(=O)Nc4ccc(Cl)c(Cl)c4)sc3c2)ccn1

>  <recorded.result>
0.095

$$$$
>  <smiles.notation>
CNC(=O)c1cc(Oc2ccc3nc(NC(=O)c4cc(C(F)(F)F)cc(C(F)(F)F)c4)sc3c2)ccn1

>  <recorded.result>
4.3

$$$$
>  <smiles.notation>
CNC(=O)c1cc(Oc2ccc3nc(NC(=O)Nc4ccc(Cl)c(C(F)(F)F)c4)sc3c2)ccn1

>  <recorded.result>
0.131

$$$$

====

Each item that follows carries a reported growth at 0.1 µM.
- run.description: Antiproliferative activity against human RPMI8226 cells assessed as cell growth at 10^-7 M after 48 hrs by sulforhodamine B assay
- Assay type: functional
- study.conditions: RPMI-8226, 48 h, read-out: Activity

>  <smiles.notation>
CNC(=O)c1cc(Oc2ccc3nc(NC(=O)Nc4cc(C(F)(F)F)cc(C(F)(F)F)c4)sc3c2)ccn1

>  <growth at 0.1 µM (%)>
108

$$$$
>  <smiles.notation>
CNC(=O)c1cc(Oc2ccc3nc(NC(=O)Nc4ccc(Cl)c(Cl)c4)sc3c2)ccn1

>  <growth at 0.1 µM (%)>
107

$$$$
>  <smiles.notation>
CNC(=O)c1cc(Oc2ccc3nc(NC(=O)c4cc(C(F)(F)F)cc(C(F)(F)F)c4)sc3c2)ccn1

>  <growth at 0.1 µM (%)>
98

$$$$
>  <smiles.notation>
CNC(=O)c1cc(Oc2ccc3nc(NC(=O)Nc4ccc(Cl)c(C(F)(F)F)c4)sc3c2)ccn1

>  <growth at 0.1 µM (%)>
101

$$$$

====

- Tested on: A549
- run.description: Antiproliferative activity against human A549/ATCC cells assessed as growth inhibition after 48 hrs by sulforhodamine B assay
- Type: functional
- study.conditions: A549, 48 h, read-out: LC50 (the source's name)

>  <smiles.notation>
CNC(=O)c1cc(Oc2ccc3nc(NC(=O)Nc4ccc(Cl)c(C(F)(F)F)c4)sc3c2)ccn1

>  <qualifier>
>

>  <CC50 [µM]>
100

$$$$
>  <smiles.notation>
CNC(=O)c1cc(Oc2ccc3nc(NC(=O)c4cc(C(F)(F)F)cc(C(F)(F)F)c4)sc3c2)ccn1

>  <qualifier>
=

>  <CC50 [µM]>
61.2

$$$$
>  <smiles.notation>
CNC(=O)c1cc(Oc2ccc3nc(NC(=O)Nc4cc(C(F)(F)F)cc(C(F)(F)F)c4)sc3c2)ccn1

>  <qualifier>
=

>  <CC50 [µM]>
5.51

$$$$
>  <smiles.notation>
CNC(=O)c1cc(Oc2ccc(NC(=O)Nc3ccc(Cl)c(C(F)(F)F)c3)cc2)ccn1

>  <qualifier>
=

>  <CC50 [µM]>
63.1

$$$$

====

- Tested on: SK-MEL-28
- run.description: Antiproliferative activity against human SK-MEL-28 cells assessed as growth inhibition after 48 hrs by sulforhodamine B assay
- Type: functional
- study.conditions: SK-MEL-28, 48 h, read-out: LC50 (the source's name)
Each item that follows carries a reported CC50.

>  <compound>
CNC(=O)c1cc(Oc2ccc3nc(NC(=O)Nc4cc(C(F)(F)F)cc(C(F)(F)F)c4)sc3c2)ccn1

>  <CC50>
6.62 µM

$$$$
>  <compound>
CNC(=O)c1cc(Oc2ccc3nc(NC(=O)Nc4ccc(Cl)c(Cl)c4)sc3c2)ccn1

>  <CC50>
7.31 µM

$$$$
>  <compound>
CNC(=O)c1cc(Oc2ccc(NC(=O)Nc3ccc(Cl)c(C(F)(F)F)c3)cc2)ccn1 [SORAFENIB]

>  <CC50>
31.6 µM

$$$$
>  <compound>
CNC(=O)c1cc(Oc2ccc3nc(NC(=O)c4cc(C(F)(F)F)cc(C(F)(F)F)c4)sc3c2)ccn1

>  <CC50>
> 100 µM

$$$$

====

- run.description: Antiproliferative activity against human HL-60(TB) cells assessed as growth inhibition after 48 hrs by sulforhodamine B assay
- Type: functional
- study.conditions: HL-60, 48 h
Each item that follows carries a reported TGI.
assay.readout: TGI (µM)

>  <smiles.notation>
CNC(=O)c1cc(Oc2ccc3nc(NC(=O)c4cc(C(F)(F)F)cc(C(F)(F)F)c4)sc3c2)ccn1

>  <units.of.measure>
µM

>  <qualifier>
=

>  <recorded.result>
5.11

$$$$
>  <smiles.notation>
CNC(=O)c1cc(Oc2ccc3nc(NC(=O)Nc4ccc(Cl)c(Cl)c4)sc3c2)ccn1

>  <units.of.measure>
µM

>  <qualifier>
>

>  <recorded.result>
100

$$$$
>  <smiles.notation>
CNC(=O)c1cc(Oc2ccc3nc(NC(=O)Nc4ccc(Cl)c(C(F)(F)F)c4)sc3c2)ccn1

>  <units.of.measure>
µM

>  <qualifier>
>

>  <recorded.result>
100

$$$$
>  <smiles.notation>
CNC(=O)c1cc(Oc2ccc3nc(NC(=O)Nc4cc(C(F)(F)F)cc(C(F)(F)F)c4)sc3c2)ccn1

>  <units.of.measure>
µM

>  <qualifier>
=

>  <recorded.result>
4.17

$$$$

====

- run.description: Antiproliferative activity against human SW620 cells assessed as growth inhibition after 48 hrs by sulforhodamine B assay
- Type: functional
- study.conditions: SW-620, 48 h, read-out: LC50 (the source's name)
assay.readout: CC50 (µM)

>  <smiles.notation>
CNC(=O)c1cc(Oc2ccc3nc(NC(=O)Nc4cc(C(F)(F)F)cc(C(F)(F)F)c4)sc3c2)ccn1

>  <assay.readout>
CC50

>  <qualifier>
=

>  <recorded.result>
6.97

$$$$
>  <smiles.notation>
CNC(=O)c1cc(Oc2ccc3nc(NC(=O)c4cc(C(F)(F)F)cc(C(F)(F)F)c4)sc3c2)ccn1

>  <assay.readout>
CC50

>  <qualifier>
>

>  <recorded.result>
100

$$$$
>  <smiles.notation>
CNC(=O)c1cc(Oc2ccc(NC(=O)Nc3ccc(Cl)c(C(F)(F)F)c3)cc2)ccn1

>  <assay.readout>
CC50

>  <qualifier>
=

>  <recorded.result>
39.8

$$$$
>  <smiles.notation>
CNC(=O)c1cc(Oc2ccc3nc(NC(=O)Nc4ccc(Cl)c(C(F)(F)F)c4)sc3c2)ccn1

>  <assay.readout>
CC50

>  <qualifier>
>

>  <recorded.result>
100

$$$$
>  <smiles.notation>
CNC(=O)c1cc(Oc2ccc3nc(NC(=O)Nc4ccc(Cl)c(Cl)c4)sc3c2)ccn1

>  <assay.readout>
CC50

>  <qualifier>
>

>  <recorded.result>
100

$$$$

====

- Test system: ACHN
- run.description: Antiproliferative activity against human ACHN cells assessed as cell growth at 10^-6 M after 48 hrs by sulforhodamine B assay
- Type: functional
- study.conditions: read-out: Activity
Each item that follows carries a reported growth at 1 µM.

>  <smiles.notation>
CNC(=O)c1cc(Oc2ccc3nc(NC(=O)Nc4ccc(Cl)c(Cl)c4)sc3c2)ccn1

>  <growth at 1 µM (%)>
88

$$$$
>  <smiles.notation>
CNC(=O)c1cc(Oc2ccc3nc(NC(=O)c4cc(C(F)(F)F)cc(C(F)(F)F)c4)sc3c2)ccn1

>  <growth at 1 µM (%)>
96

$$$$
>  <smiles.notation>
CNC(=O)c1cc(Oc2ccc3nc(NC(=O)Nc4ccc(Cl)c(C(F)(F)F)c4)sc3c2)ccn1

>  <growth at 1 µM (%)>
93

$$$$
>  <smiles.notation>
CNC(=O)c1cc(Oc2ccc3nc(NC(=O)Nc4cc(C(F)(F)F)cc(C(F)(F)F)c4)sc3c2)ccn1

>  <growth at 1 µM (%)>
32

$$$$

====

- run.description: Antiproliferative activity against human NCI-ADR-RES cells assessed as growth inhibition after 48 hrs by sulforhodamine B assay
- Format: functional

>  <smiles.notation>
CNC(=O)c1cc(Oc2ccc3nc(NC(=O)Nc4ccc(Cl)c(C(F)(F)F)c4)sc3c2)ccn1

>  <units.of.measure>
nM

>  <GI50>
2430

$$$$
>  <smiles.notation>
CNC(=O)c1cc(Oc2ccc3nc(NC(=O)Nc4ccc(Cl)c(Cl)c4)sc3c2)ccn1

>  <units.of.measure>
nM

>  <GI50>
2300

$$$$
>  <smiles.notation>
CNC(=O)c1cc(Oc2ccc3nc(NC(=O)Nc4cc(C(F)(F)F)cc(C(F)(F)F)c4)sc3c2)ccn1

>  <units.of.measure>
nM

>  <GI50>
1270

$$$$
>  <smiles.notation>
CNC(=O)c1cc(Oc2ccc(NC(=O)Nc3ccc(Cl)c(C(F)(F)F)c3)cc2)ccn1

>  <units.of.measure>
nM

>  <GI50>
2510

$$$$
>  <smiles.notation>
CNC(=O)c1cc(Oc2ccc3nc(NC(=O)c4cc(C(F)(F)F)cc(C(F)(F)F)c4)sc3c2)ccn1

>  <units.of.measure>
nM

>  <GI50>
3670

$$$$
